test system: Saccharomyces cerevisiae BY4741 SeMeCo community; test: z-score of subpopulation abundance vs DMSO median, subpopulation auxotrophic for UM; higher = larger share of this subpopulation than in DMSO controls; details: 10 µM; 24 h; SM minimal medium; subpopulation (auxotrophy): UM
Where a name gives a salt, the structure may show the parent alone.
In this section we review reported z-score of subpopulation abundance values for a set of molecules.
Just the number, please.

Example entries begin here.
{"molecule": "CN(C)CCc1c[nH]c2ccc(CS(=O)(=O)N3CCCC3)cc12 [Almotriptan Malate]", "number": -0.12}
{"molecule": "C[N+]1(C)[C@@H]2C[C@@H](OC(=O)C(O)(c3cccs3)c3cccs3)C[C@H]1[C@@H]1O[C@@H]12 [Tiotropium Bromide hydrate]", "number": 0.07}
{"molecule": "CC(C)Cc1ccc(C(C)C(=O)O)cc1 (stereo not given) [Ibuprofen]", "number": -3.84}
{"molecule": "N#Cc1ccc(Oc2ccc3c(c2)COB3O)cc1", "number": -0.21}
{"molecule": "O=C(c1ccc(F)cc1)C1CCN(CCn2c(=O)[nH]c3ccccc3c2=O)CC1", "number": -0.54}
{"molecule": "CCN(CC)CCOc1ccc2c(c1)C(=O)c1cc(OCCN(CC)CC)ccc1-2 [Tilorone dihydrochloride]", "number": -0.31}
{"molecule": "C#C[C@]1(O)CC[C@H]2[C@@H]3CCc4cc(OC)ccc4[C@H]3CC[C@@]21C", "number": -0.68}
{"molecule": "Cc1c(-c2ccccc2)oc2c(C(=O)OCCN3CCCCC3)cccc2c1=O [Flavoxate HCl]", "number": 0.71}
{"molecule": "CC1(C)S[C@@H]2[C@H](NC(=O)[C@H](N)c3ccc(O)cc3)C(=O)N2[C@H]1C(=O)O [Amoxicillin]", "number": 0.46}
{"molecule": "O=C1CN(/N=C/c2ccc(-c3ccc([N+](=O)[O-])cc3)o2)C(=O)N1 [Dantrolene sodium]", "number": -2.91}

(Q) Lab note: record z-score of subpopulation abundance of CCN1CCC[C@H]1CNC(=O)c1cc(S(N)(=O)=O)ccc1OC [Levosulpiride] tested on Saccharomyces cerevisiae BY4741 SeMeCo community.
(A) 0.08

(Q) Lab note: record z-score of subpopulation abundance of COc1ccc(C(=O)NCc2ccc(OCCN(C)C)cc2)cc1OC [Itopride hydrochloride] tested on Saccharomyces cerevisiae BY4741 SeMeCo community.
(A) 0.38

(Q) Lab note: record z-score of subpopulation abundance of Oc1c(Br)cc(Br)c2cccnc12 tested on Saccharomyces cerevisiae BY4741 SeMeCo community.
(A) 6.77

(Q) Lab note: record z-score of subpopulation abundance of NC(=N\CCCCCC/N=C(N)/N=C(\N)Nc1ccc(Cl)cc1)/N=C(\N)Nc1ccc(Cl)cc1 [Chlorhexidine diacetate] tested on Saccharomyces cerevisiae BY4741 SeMeCo community.
(A) -1.2

(Q) Lab note: record z-score of subpopulation abundance of COC(=O)Nc1nc2cc(Sc3ccccc3)ccc2[nH]1 tested on Saccharomyces cerevisiae BY4741 SeMeCo community.
(A) 0.27

(Q) Lab note: record z-score of subpopulation abundance of Nc1ccc(S(=O)(=O)Nc2cnc3ccccc3n2)cc1 [Sulfaquinoxaline sodium] tested on Saccharomyces cerevisiae BY4741 SeMeCo community.
(A) 1.56

(Q) Lab note: record z-score of subpopulation abundance of CN(C)CC/C=C1/c2ccccc2Sc2ccc(Cl)cc21 tested on Saccharomyces cerevisiae BY4741 SeMeCo community.
(A) 0.34

(Q) Lab note: record z-score of subpopulation abundance of CN(C)C(=O)COC(=O)Cc1ccc(OC(=O)c2ccc(NC(=N)N)cc2)cc1 [Camostat Mesilate] tested on Saccharomyces cerevisiae BY4741 SeMeCo community.
(A) -0.43

(Q) Lab note: record z-score of subpopulation abundance of CCOC(=O)C1=C[C@]2(CC)CCCN3CCc4c(n1c1ccccc41)[C@@H]32 tested on Saccharomyces cerevisiae BY4741 SeMeCo community.
(A) 1.1
